target: Induced myeloid leukemia cell differentiation protein Mcl-1 (Homo sapiens); assay: modulators of Bim peptide binding to Mcl-1, dose response, biochemical, bead-based flow cytometry, multiplexed, human (AID 1329); conditions: Bim peptide-Mcl-1 binding, MCF
Active and inactive are the calls of the source. How the calls were made is not given here.
parameter: percent span

Below, 5 compounds whose answers are already recorded.
CC1Nc2ccccc2C(=O)N1NS(=O)(=O)c1ccccc1 (centres undefined) = inactive
O=C(Nc1n[nH]c(C(F)(F)F)n1)C1CC1 = inactive
Cc1cc(Cl)c(S(=O)(=O)NCC2CCCO2)cc1OCC(N)=O (centres undefined) = inactive
Cc1ccc(C)n1-c1ccc(N2CCOCC2)cc1 = inactive
CCOC(=O)N1CCC(c2cc(=O)n(-c3ccccc3)[nH]2)CC1 = inactive

Query block: Item CCOc1cc(C2Nc3cccc4cccc(c34)N2)ccc1O has what recorded percent span?
Result block: inactive

Query block: # percent span lookup, item COc1cc(/C=C2/NC(=O)N(Cc3ccccc3F)C2=O)cc(OC)c1O
Result block: inactive

Query block: Dear colleague, I am looking for the recorded percent span of the following compound: Cc1cccc(Nc2nc(-c3ccncc3)cs2)c1
Result block: inactive

Query block: Please give the measured percent span for this compound: O=C1/C(=C/c2cccs2)Sc2ccccc21
Result block: inactive

Query block: Please look up its percent span: Cc1ccc(-n2nc(C)c(C(=O)O)n2)c(C)c1
Result block: inactive

Query block: Please look up its percent span: O=C(NCCO)c1ccc2nc(-c3ccco3)c(-c3ccco3)nc2c1
Result block: inactive

Query block: Tell me the measured percent span of CCn1cc(C=C2C(=O)c3ccccc3C2=O)c2ccccc21 , please.
Result block: inactive

Query block: // lookup percent span for Cc1ccccc1-n1nc(SCC(=O)O)sc1=S
Result block: inactive

Query block: Could you tell me which percent span is on file for Cc1ccc(/C=C/C2=Cc3c(sc(NC(=O)CSc4n[nH]c(N)n4)c3C#N)C(C)(C)C2)o1 ?
Result block: inactive

---

molecular target: Induced myeloid leukemia cell differentiation protein Mcl-1 (Homo sapiens) (UniProt Q07820); assay: modulators of Bim peptide binding to Mcl-1, dose response, biochemical, bead-based flow cytometry, multiplexed, human (AID 1329); conditions: Bim peptide-Mcl-1 binding, MCF
Sequence (Q07820 whole entry, looked up): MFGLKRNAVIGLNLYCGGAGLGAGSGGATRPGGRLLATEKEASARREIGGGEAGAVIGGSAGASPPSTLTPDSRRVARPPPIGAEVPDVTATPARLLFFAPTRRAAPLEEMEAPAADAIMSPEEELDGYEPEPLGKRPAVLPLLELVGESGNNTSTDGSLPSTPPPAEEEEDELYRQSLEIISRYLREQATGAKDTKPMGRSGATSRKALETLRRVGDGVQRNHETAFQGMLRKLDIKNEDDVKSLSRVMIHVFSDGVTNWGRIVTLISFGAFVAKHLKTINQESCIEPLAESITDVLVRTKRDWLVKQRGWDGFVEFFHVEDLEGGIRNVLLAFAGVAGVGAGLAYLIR
Active and inactive are the calls of the source. The rule behind the calls is not given here.
parameter: percent span

Guide cases for percent span, answers given:
CCN(CC)c1ccc(NC(=O)c2ccccc2Br)cc1S(=O)(=O)Nc1ccccc1OC = inactive
O=C1C=C(Nc2ccccc2)C(=O)c2ccccc21 = inactive
Nc1c(C(=O)NCc2ccco2)sc2nc3c(cc12)C(=O)CCC3 = inactive
CN(C)c1ccc(C(=O)/C=C/c2ccc(Br)cc2)cc1 = inactive
Cc1c(N=C2C=CC(=O)c3ccccc32)c(=O)n(-c2ccccc2)n1C = inactive
Cc1onc(-c2ccccc2Cl)c1C(=O)Nc1nn[nH]n1 = inactive
O=C(NCCCN1CCCC1=O)NC1CCCCC1 = inactive
Cc1c(Cc2ccccc2)sc(N)c1C(N)=O = inactive

Consider the record given below.
Query block: Which percent span is listed for COc1ccc(CCNC(=O)c2cc(-c3ccccn3)nc3c(Cl)cccc23)cc1OC ?
Result block: inactive

---

biological target: Induced myeloid leukemia cell differentiation protein Mcl-1 (Homo sapiens) (UniProt Q07820); assay: modulators of Bim peptide binding to Mcl-1, dose response, biochemical, bead-based flow cytometry, multiplexed, human (AID 1329); details: Bim peptide-Mcl-1 binding, MCF
Active and inactive are the calls of the source. The rule behind the calls is not given here.
parameter: percent span

N#CC(C#N)=C1C=CC=CN1/C(=C\c1ccco1)C(=O)c1ccccc1 = inactive
CCOCCOc1nc2c(c(=O)n(C)c(=O)n2C)n1CCc1ccccc1 = inactive
COC(=O)c1sc2nc[nH]c(=O)c2c1C = inactive
Cc1noc(C)c1CN1C(=O)NC(Cc2ccccc2)(Cc2ccccc2)C1=O = inactive
CSc1nnc2c3cc(C)ccc3n(Cc3ccccc3)c2n1 = inactive

Query block: Given the molecule CN1CCc2cccc3c2[C@H]1Cc1ccc(O)c(O)c1-3 , what is its reported percent span?
Result block: inactive

Query block: For Fc1ccc(/C=C2\CCCC3=C2NC(=S)NC3c2ccc(F)cc2)cc1 (stereo not drawn) , what is its reported percent span?
Result block: inactive

Query block: Given the molecule CC1Cc2ccccc2N1C(=O)c1ccc(N2CCCC2)c([N+](=O)[O-])c1 (stereo not drawn) , what is its reported percent span?
Result block: inactive

Query block: Dear colleague, I am looking for the recorded percent span of the following molecule: Clc1nssc1=Nc1ccc(Br)cc1
Result block: inactive

Query block: Request the reported percent span associated with Fc1cccc(Nc2nc(-c3ccncc3)nc3ccccc23)c1
Result block: inactive

Query block: Reported percent span, molecule c1cncc(-c2nnc3n2N=C(c2cccs2)CS3)c1 : ____
Result block: inactive

Query block: GET /values?readout=percent span&item= Cc1ccnc(NS(=O)(=O)c2ccc(NC(=O)c3c(-c4ccccc4Cl)noc3C)cc2)n1
Result block: inactive

Query block: // lookup percent span for COC(=O)C1C2c3ccccc3OC1(C)N=c1s/c(=C/c3cnn(C)c3C)c(=O)n12 (stereo not drawn)
Result block: inactive

Query block: Reported percent span for CCOC(=O)CCCNC(=O)c1cncc(O)c1 : what is it?
Result block: inactive

Query block: Entry Cc1cc(C)nc(SCc2cc(=O)c(OC(=O)c3cccc([N+](=O)[O-])c3)co2)n1 has what percent span?
Result block: inactive

Query block: Can you share its percent span? I mean this molecule: CC1=CC(=O)c2ccccc2C1=O
Result block: inactive

Query block: I would be grateful if you could share the reported percent span for Cc1ccc(/C=C/C(=O)c2ccccc(=O)c2O)c(C)c1 .
Result block: inactive

Query block: Recorded percent span for COc1cc(/C=C2\CC/C(=C\c3cc(OC)c(O)c(OC)c3)C2=O)cc(OC)c1O , please?
Result block: inactive

---

molecular target: Induced myeloid leukemia cell differentiation protein Mcl-1 (Homo sapiens) (UniProt Q07820); experiment: modulators of Bim peptide binding to Mcl-1, dose response, biochemical, bead-based flow cytometry, multiplexed, human (AID 1329); conditions: Bim peptide-Mcl-1 binding, MCF
Activity calls are given as the source filed them. The rule behind the calls is not given here.
parameter: percent span

Consider the reported percent span for these compounds:
COC(=O)c1ccc(C)c(NC(=O)CCNC(=O)c2ccc([N+](=O)[O-])cc2)c1 = inactive
O=C(CSc1nnc(-c2ccco2)n1Cc1ccccc1)c1ccccc1 = inactive
Cc1cc(C)n(CC(=O)N/N=C/c2cccc([N+](=O)[O-])c2)n1 = inactive
COc1cccc(N2CC(C(=O)Nc3nnc(SCC(=O)c4ccccc4)s3)CC2=O)c1 (configuration not stated) = inactive

Query block: Reported percent span for Cc1nc2scc(-c3ccccc3)c2c(=O)n1N=C1C=CC(=O)C=C1 : what is it?
Result block: inactive

Query block: Given the entry COc1ccc(OC)c(NC(=O)CCCN2C(=S)NC(C)(C)CC2C)c1 (configuration not stated) , report its measured percent span.
Result block: inactive

Query block: For Cc1ccc(C(=O)C(C(=O)/C=C/c2ccccc2)=C2SCCCS2)cc1 , what is its reported percent span?
Result block: inactive

Query block: Which percent span is reported for this compound? CCNCc1cc(Br)c(OCC(=O)Nc2ccccc2)c(OC)c1
Result block: inactive

Query block: Any idea what percent span was measured for Cc1ccc(CNc2ccc3c(c2)OCO3)c(C)c1 ?
Result block: inactive

Query block: Fill blank: measured percent span of the compound O=C(Oc1ccc(-c2cnc3ccccc3n2)cc1)c1cccc([N+](=O)[O-])c1 is ____.
Result block: inactive

Query block: Returns the measured percent span for the input compound. Input: COc1ccccc1N(C)S(=O)(=O)c1ccc(C(=O)OCC(N)=O)cc1
Result block: inactive

Query block: I'd like to know its percent span. The compound in question is Cc1ccc(C(=O)NNC(=O)c2ccc3ncccc3c2)cc1
Result block: inactive

Query block: Could you share which percent span value was measured for Cc1ccc(-c2cc(C(=O)N3CCN(c4ncccn4)CC3)c3cc(Br)ccc3n2)o1 ?
Result block: inactive

Query block: Which percent span is reported for this compound? COc1cc(CNc2ccc(N3CCCC3)cc2)cc(Cl)c1OC
Result block: inactive

Query block: I would be grateful if you could share the reported percent span for CCOc1c(Cl)cc(CNc2ccc(N3CCCC3)cc2)cc1OC .
Result block: inactive

---

target: Induced myeloid leukemia cell differentiation protein Mcl-1 (Homo sapiens) (UniProt Q07820); test: modulators of Bim peptide binding to Mcl-1, dose response, biochemical, bead-based flow cytometry, multiplexed, human (AID 1329); settings: Bim peptide-Mcl-1 binding, MCF
Active and inactive are the calls of the source. The rule behind the calls is not given here.
parameter: percent span

Example results:
COc1c(C)cc(Br)cc1C(=O)Nc1ccc(S(N)(=O)=O)cc1 = inactive
OCCC1CN(Cc2ccc3ncccc3c2)CCN1Cc1ccccc1 (configuration not stated) = inactive
O=C(NCc1ccco1)C1CC2CCC1C2 (configuration not stated) = inactive
O=C(Nc1nccs1)c1ccc(COc2ccc(F)cc2)o1 = inactive
COc1ccc(NC(=O)c2ccco2)cc1NC(=O)c1ccco1 = inactive
Cc1ccc(NC(=O)c2cc(S(=O)(=O)NCCC3=CCCCC3)ccc2F)cc1F = inactive
CCN(CC)c1ccc(NC(=O)c2ccc(=O)[nH]c2)cc1S(=O)(=O)Nc1ccccc1OC = inactive
CSc1nnc2ccc(-c3cccs3)nn12 = inactive
COc1ccc(-c2csc(NC(=O)/C(N=Nc3ccccc3)=C(\C)O)n2)cc1 = inactive
COc1ccccc1NC(=O)CSc1nnc(-c2ccco2)n1Cc1ccco1 = inactive

Query block: Give the measured percent span of Cc1ccc(C)n1-c1cccc(C(=O)O)c1 .
Result block: inactive

Query block: Data request, read-out percent span, for O=C1Nc2ccc([N+](=O)[O-])cc2OC1CCN1CCN(Cc2ccc3c(c2)OCO3)CC1 (configuration not stated)
Result block: inactive

Query block: Entry under review: CCN(CC)c1ccc(-c2nn3c(-c4n[nH]c5c4CCC5)nnc3s2)cc1 . Reported percent span?
Result block: inactive

Query block: Consider the compound shown here: Cc1ccc(Nc2nc(CSc3nnc(-c4cccnc4)n3-c3ccccc3C)cs2)cc1 What is its recorded percent span?
Result block: inactive

Query block: Could you share which percent span value was measured for CN(C)[C@@H]1C(=O)C(C(=O)NCN2CCCC2)=C(O)[C@@]2(O)C(=O)C3=C(O)c4c(O)cccc4[C@@](C)(O)C3CC12 (some centres not stated) ?
Result block: inactive

Query block: // query percent span value for entry O=C(Nc1ccc(Cl)cn1)Nc1ccccc1F
Result block: inactive

Query block: Requested read-out: percent span. Entry: Clc1nssc1=Nc1ccccc1
Result block: inactive
